- tested-on: UniProtKB A0A0K0TQ28
- Sequence (A0A0K0TQ28 whole entry): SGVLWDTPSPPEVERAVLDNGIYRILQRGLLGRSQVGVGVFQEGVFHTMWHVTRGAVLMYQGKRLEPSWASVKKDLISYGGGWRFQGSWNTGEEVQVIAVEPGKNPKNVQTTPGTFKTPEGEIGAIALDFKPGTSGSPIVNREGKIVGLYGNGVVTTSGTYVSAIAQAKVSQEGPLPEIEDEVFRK
- test-details: Functional biochemical assay to identify treatments for viral infectious disease that targets Dengue virus type 1 NS2B-NS3 protease. Utilizing a direct enzyme activity measurement method, reading the fluorescence intensity is used to characterize the relative potency of inhibitors as IC50.
Provide the reported pIC50 of each item.
Give bare numbers, as −log10 of the molar value.

Past entries and their recorded results:
Input O=C(Nc1ccc2c(c1)CNC2)c1cccc2c(C3CNC3)n[nH]c12 , output reported pIC50. 4.03

Input NCc1cccc([C@H]2C[C@@H]2c2cc(Cl)cc(NC(=O)OCc3ccccc3)c2)c1 , output reported pIC50. 4.60

Input Clc1cc([C@@H]2C[C@H]2c2cccc(C3CCNCC3)c2)c2cn[nH]c2c1 , output reported pIC50. 5.23

Please go through the list and note pIC50 for each molecule.
1. O=C(Nc1ccc2c(c1)CNC2)c1cccc2[nH]c(=O)[nH]c12
2. OCC#C[C@H](Nc1ccc2c(c1)CNC2)c1cc(Cl)cc2[nH]ncc12
3. O=C(Nc1cc(Cl)cc(C(=O)Nc2cccc([C@H]3C[C@H]3C(=O)O)c2)c1)OCc1ccccc1
4. NCc1ccc(-c2csc3cc(C(=O)Nc4ccc5c(c4)CNC5)ccc23)cc1
5. Clc1cc(CNc2ccc3c(c2)CNC3)c2cn[nH]c2c1
6. O=C(Nc1ccc2c(c1)CNC2)c1cc(Br)cc2ccccc12
7. O=C(Nc1ccc2c(c1)CNC2)c1cc(Br)cc2[nH]c(-c3ccccc3)nc12
8. COc1cccc(-c2nc3c(C(=O)Nc4ccc5c(c4)CNC5)cc(F)cc3[nH]2)c1

1: 4.18; 2: 4.71; 3: 4.60; 4: 4.50; 5: 4.51; 6: 4.08; 7: 5.91; 8: 5.27

Please go through the list and note pIC50 for each molecule.
1. N#Cc1cc2c(cc1NC(=O)c1cc(F)cc3[nH]ncc13)CNC2
2. O=C(Nc1ccc2c(c1)CNC2)c1cc(F)cc2[nH]c(-c3cccc(F)c3)nc12
3. O=C(Nc1ccc2c(c1)CNC2)c1ccc2c(C3=CCNCC3)csc2c1

1. 4.22
2. 5.57
3. 4.25

Please go through the list and note pIC50 for each molecule.
1. NCc1cccc(-c2csc3cc(C(=O)Nc4ccc5c(c4)CNC5)ccc23)c1
2. CNC(=O)[C@H](Nc1cc(Cl)cc(NC(=O)OCc2ccccc2)c1)c1cccc(-c2nn[nH]n2)c1
3. O=C(Nc1cc(Cl)cc(-c2ccc3[nH]c(C(=O)O)cc3c2)c1)OCc1ccccc1

4.52
4.33
5.24

###

- tested-on: UniProtKB A0A0K0TQ28
- test-details: Functional biochemical assay to identify treatments for viral infectious disease that targets Dengue virus type 1 NS2B-NS3 protease. Utilizing a direct enzyme activity measurement method, reading the fluorescence intensity is used to characterize the relative potency of inhibitors as IC50.
pIC50: −log10 of the molar value.
Provide the reported pIC50 of each item.

Past entries and their recorded results:
Input O=C(NC1CCOCC1)[C@H](Nc1ccc2c(c1)CNC2)c1cc(Cl)cc(C2CC2)c1 , output reported pIC50. < 4.00

Input O=C(Nc1cc2c(c(C3=CCOCC3)c1)CNC2)c1cc(F)cc2[nH]ncc12 , output reported pIC50. 4.40

Input O=C(Nc1ccc2c(c1)CNC2)c1cc(Cl)cc2cn[nH]c12 , output reported pIC50. < 4.00

Please go through the list and note pIC50 for each molecule.
1. O=C(Nc1cc2c(cc1Br)CNC2)c1cc(F)cc2[nH]ncc12
2. O=C(Nc1ccc2c(c1)CNCC2)c1cc(Cl)cc2[nH]ncc12
3. O=C(Nc1ccc2c(c1)CNC2)c1cc(Cl)cc2cc[nH]c12
4. CNC(=O)[C@H](Nc1cc(CN)cc(C(=O)O)c1)c1cc(Cl)cc(C2CC2)c1
5. O=C(Nc1cc(Cl)cc(C(=O)Nc2cccc(-n3nn[nH]c3=O)c2)c1)OCc1ccccc1
6. O=C(NCC(F)F)[C@H](Nc1ccc2c(c1)CNC2)c1cc(Cl)cc(C2CC2)c1
7. O=C(NC1CCOCC1)[C@H](Nc1ccc2c(c1)CNC2)c1cc(Cl)cc2[nH]ncc12

< 4.00
< 4.00
< 4.00
< 4.00
4.94
< 4.00
< 4.00
